- System: CEM-SS
- Experiment summary: Cytotoxicity against human CEM-SS cells by XTT assay
- Format: cell-based
// assign True if CC50 falls strictly below 10 µM, else False (ties count as False)

>  <Record smiles>
CCCc1c(C)sc2nc(-c3cccc(O)c3O)[nH]c(=O)c12

>  <Discrete label>
False

$$$$
>  <Record smiles>
CCCc1c(CC)sc2nc(-c3ccc(O)c(O)c3)[nH]c(=O)c12

>  <Discrete label>
False

$$$$
>  <Record smiles>
CCCCc1c(C)sc2nc(-c3ccc(O)c(O)c3)[nH]c(=O)c12

>  <Discrete label>
False

$$$$
>  <Record smiles>
O=c1[nH]c(-c2ccc(O)c(O)c2)nc2sc3c(c12)CCCCC3

>  <Discrete label>
True

$$$$
>  <Record smiles>
Cc1sc2nc(-c3ccc(O)c(O)c3)[nH]c(=O)c2c1C

>  <Discrete label>
True

$$$$
>  <Record smiles>
CCCc1c(C)sc2nc(-c3ccc(O)c(O)c3)[nH]c(=O)c12

>  <Discrete label>
False

$$$$

* * *

- Experiment summary: Selectivity ratio of CC50 for human CEM-SS cells to EC50 for Human immunodeficiency virus 1 RF isolate
- Format: ADME, cell-based
# Lookup of reported Ratio CC50/EC50 keyed by entry
Observed property: Ratio CC50/EC50

>  <Record smiles>
O=c1[nH]c(-c2ccc(O)c(O)c2)nc2sc3c(c12)CCCCC3

>  <Result>
4.3

$$$$
>  <Record smiles>
O=c1[nH]c(-c2cccc(O)c2O)nc2sc3c(c12)CCCCC3

>  <Result>
3.6

$$$$
>  <Record smiles>
CCCc1c(C)sc2nc(-c3ccc(O)c(O)c3)[nH]c(=O)c12

>  <Result>
5.9

$$$$
>  <Record smiles>
Cc1sc2nc(-c3ccc(O)c(O)c3)[nH]c(=O)c2c1C

>  <Result>
2.3

$$$$
>  <Record smiles>
CCCc1c(CC)sc2nc(-c3ccc(O)c(O)c3)[nH]c(=O)c12

>  <Result>
3.7

$$$$
>  <Record smiles>
CCCc1c(C)sc2nc(-c3cccc(O)c3O)[nH]c(=O)c12

>  <Result>
4

$$$$
>  <Record smiles>
CCCCc1c(C)sc2nc(-c3ccc(O)c(O)c3)[nH]c(=O)c12

>  <Result>
3.2

$$$$

* * *

# Lookup of reported IC50 keyed by entry
- Experiment summary: Inhibition of RNase H activity of HIV-1 reverse transcriptase p66/p51 R284A mutant using 18 nucleotide 3'-fluorescein-labeled RNA/18 nucleotide 5'-dabsyl-labeled DNA hybrid as substrate after 10 mins by fluorescence spectrometric analysis
- Set-up: species or system Human immunodeficiency virus 1

>  <Record smiles>
O=c1[nH]c(-c2ccccc2)nc2sc3c(c12)CCCCC3

>  <IC50 (nM)>
1300

$$$$
>  <Record smiles>
O=c1[nH]c(-c2cccc(O)c2O)nc2sc3c(c12)CCCCC3

>  <IC50 (nM)>
2900

$$$$
>  <Record smiles>
O=C(O)c1ccc(-c2nc3sc4c(c3c(=O)[nH]2)CCCCC4)cc1

>  <IC50 (nM)>
950

$$$$
>  <Record smiles>
O=c1[nH]c(-c2ccc(O)c(O)c2)nc2sc3c(c12)CCCCC3

>  <IC50 (nM)>
550

$$$$
>  <Record smiles>
Cc1sc2nc(-c3ccc(O)c(O)c3)[nH]c(=O)c2c1C

>  <IC50 (nM)>
300

$$$$
>  <Record smiles>
CCCc1c(C)sc2nc(-c3cccc(O)c3O)[nH]c(=O)c12

>  <IC50 (nM)>
3500

$$$$
>  <Record smiles>
Cc1sc2nc(-c3ccc(O)cc3)[nH]c(=O)c2c1C

>  <IC50 (nM)>
200

$$$$
>  <Record smiles>
Cc1sc2nc(-c3cccc([N+](=O)[O-])c3)[nH]c(=O)c2c1C

>  <IC50 (nM)>
340

$$$$
>  <Record smiles>
CCCc1c(CC)sc2nc(-c3ccc(O)c(O)c3)[nH]c(=O)c12

>  <IC50 (nM)>
1400

$$$$
>  <Record smiles>
O=c1[nH]c(-c2ccc(C(F)(F)F)cc2)nc2sc3c(c12)CCCCC3

>  <IC50 (nM)>
540

$$$$
>  <Record smiles>
O=c1[nH]c(-c2ccc(O)c(O)c2)nc2sc3c(c12)CCCC3

>  <IC50 (nM)>
920

$$$$
>  <Record smiles>
O=c1[nH]c(-c2ccc(O)c(O)c2)nc2sc3c(c12)CCCCCC3

>  <IC50 (nM)>
280

$$$$

* * *

- Experiment summary: Inhibition of RNase H activity of HIV-1 reverse transcriptase p66/p51 V276A mutant using 18 nucleotide 3'-fluorescein-labeled RNA/18 nucleotide 5'-dabsyl-labeled DNA hybrid as substrate after 10 mins by fluorescence spectrometric analysis
- Parameters: species or system Human immunodeficiency virus 1
pIC50: −log10 of the molar value.
# Lookup of reported pIC50 keyed by entry

>  <Record smiles>
Cc1sc2nc(-c3cc4ccccc4[nH]3)[nH]c(=O)c2c1C

>  <pIC50>
6.80

$$$$
>  <Record smiles>
O=c1[nH]c(-c2ccc(O)cc2)nc2sc3c(c12)CCCCC3

>  <pIC50>
6.19

$$$$
>  <Record smiles>
Cc1sc2nc(-c3ccc(C(F)(F)F)cc3)[nH]c(=O)c2c1C

>  <pIC50>
6.51

$$$$
>  <Record smiles>
CCCc1c(C)sc2nc(-c3ccc(O)c(O)c3)[nH]c(=O)c12

>  <pIC50>
6.25

$$$$
>  <Record smiles>
O=c1[nH]c(-c2cccc(O)c2O)nc2sc3c(c12)CCCCC3

>  <pIC50>
5.55

$$$$
>  <Record smiles>
O=c1[nH]c(-c2ccc(O)c(O)c2)nc2sc3c(c12)CCCCC3

>  <pIC50>
6.43

$$$$
>  <Record smiles>
O=c1[nH]c(-c2ccc(C(F)(F)F)cc2)nc2sc3c(c12)CCCCC3

>  <pIC50>
6.28

$$$$
>  <Record smiles>
Cc1sc2nc(-c3ccc(O)cc3)[nH]c(=O)c2c1C

>  <pIC50>
6.85

$$$$
>  <Record smiles>
Cc1sc2nc(-c3cccc([N+](=O)[O-])c3)[nH]c(=O)c2c1C

>  <pIC50>
6.59

$$$$
>  <Record smiles>
O=c1[nH]c(-c2ccc(O)c(O)c2)nc2sc3c(c12)CCCCCC3

>  <pIC50>
6.96

$$$$
>  <Record smiles>
O=C(O)c1ccc(-c2nc3sc4c(c3c(=O)[nH]2)CCCCC4)cc1

>  <pIC50>
6.34

$$$$
>  <Record smiles>
CCCc1c(CC)sc2nc(-c3ccc(O)c(O)c3)[nH]c(=O)c12

>  <pIC50>
6.12

$$$$
>  <Record smiles>
O=c1[nH]c(-c2ccccc2)nc2sc3c(c12)CCCCC3

>  <pIC50>
6.02

$$$$
>  <Record smiles>
O=c1[nH]c(-c2ccc(O)c(O)c2)nc2sc3c(c12)CCCC3

>  <pIC50>
6.39

$$$$
>  <Record smiles>
Cc1sc2nc(-c3ccc(O)c(O)c3)[nH]c(=O)c2c1C

>  <pIC50>
6.41

$$$$
>  <Record smiles>
O=c1[nH]c(-c2ccc(O)c(O)c2)nc2sc3c(c12)CCC3

>  <pIC50>
6.68

$$$$
>  <Record smiles>
CCCCc1c(C)sc2nc(-c3ccc(O)c(O)c3)[nH]c(=O)c12

>  <pIC50>
6.04

$$$$
>  <Record smiles>
CCCc1c(C)sc2nc(-c3cccc(O)c3O)[nH]c(=O)c12

>  <pIC50>
5.39

$$$$

* * *

- System name: Human immunodeficiency virus type 1 reverse transcriptase (Human immunodeficiency virus 1)
pIC50: −log10 of the molar value.
Observed property: pIC50

>  <Record smiles>
Cc1sc2nc(-c3cccnc3)[nH]c(=O)c2c1C

>  <System name>
Human immunodeficiency virus type 1 reverse transcriptase (Human immunodeficiency virus 1)

>  <Observed property>
pIC50

>  <Readout qualifier>
=

>  <Result>
5.08

$$$$
>  <Record smiles>
O=c1[nH]c(-c2ccc(O)c(O)c2)nc2sc3c(c12)CCCC3

>  <System name>
Human immunodeficiency virus type 1 reverse transcriptase (Human immunodeficiency virus 1)

>  <Observed property>
pIC50

>  <Readout qualifier>
=

>  <Result>
6.43

$$$$
>  <Record smiles>
Cc1sc2nc(-c3cc4ccccc4[nH]3)[nH]c(=O)c2c1C

>  <System name>
Human immunodeficiency virus type 1 reverse transcriptase (Human immunodeficiency virus 1)

>  <Observed property>
pIC50

>  <Readout qualifier>
=

>  <Result>
6.32

$$$$
>  <Record smiles>
CCCCc1c(C)sc2nc(-c3ccc(O)c(O)c3)[nH]c(=O)c12

>  <System name>
Human immunodeficiency virus type 1 reverse transcriptase (Human immunodeficiency virus 1)

>  <Observed property>
pIC50

>  <Readout qualifier>
=

>  <Result>
6.38

$$$$
>  <Record smiles>
Cc1sc2nc(-c3cc(O)cc(O)c3)[nH]c(=O)c2c1C

>  <System name>
Human immunodeficiency virus type 1 reverse transcriptase (Human immunodeficiency virus 1)

>  <Observed property>
pIC50

>  <Readout qualifier>
=

>  <Result>
5.28

$$$$
>  <Record smiles>
O=c1[nH]c(-c2ccc(O)cc2O)nc2sc3c(c12)CCCCC3

>  <System name>
Human immunodeficiency virus type 1 reverse transcriptase (Human immunodeficiency virus 1)

>  <Observed property>
pIC50

>  <Readout qualifier>
=

>  <Result>
5.03

$$$$
>  <Record smiles>
Cc1sc2nc(-c3ccccc3)[nH]c(=O)c2c1C

>  <System name>
Human immunodeficiency virus type 1 reverse transcriptase (Human immunodeficiency virus 1)

>  <Observed property>
pIC50

>  <Readout qualifier>
=

>  <Result>
4.95

$$$$
>  <Record smiles>
Cc1sc2nc(-c3ccc([N+](=O)[O-])o3)[nH]c(=O)c2c1C

>  <System name>
Human immunodeficiency virus type 1 reverse transcriptase (Human immunodeficiency virus 1)

>  <Observed property>
pIC50

>  <Readout qualifier>
=

>  <Result>
4.77

$$$$
>  <Record smiles>
O=c1[nH]c(-c2ccc(O)cc2)nc2sc3c(c12)CCCCC3

>  <System name>
Human immunodeficiency virus type 1 reverse transcriptase (Human immunodeficiency virus 1)

>  <Observed property>
pIC50

>  <Readout qualifier>
=

>  <Result>
5.49

$$$$
>  <Record smiles>
Cc1sc2nc(-c3ccc(F)c(F)c3)[nH]c(=O)c2c1C

>  <System name>
Human immunodeficiency virus type 1 reverse transcriptase (Human immunodeficiency virus 1)

>  <Observed property>
pIC50

>  <Readout qualifier>
<

>  <Result>
4.30

$$$$
>  <Record smiles>
CCCc1c(CC)sc2nc(-c3ccc(O)c(O)c3)[nH]c(=O)c12

>  <System name>
Human immunodeficiency virus type 1 reverse transcriptase (Human immunodeficiency virus 1)

>  <Observed property>
pIC50

>  <Readout qualifier>
=

>  <Result>
6.23

$$$$
